System: A498 renal
Assay: NCI tumour cell line growth inhibition, 48 h
reported metric: GI50

Example molecules with recorded GI50:
| molecule | GI50 |
| --- | --- |
| CN1CCCC1c1cccnc1.O=C(O)c1ccccc1O.O=C([O-])c1ccccc1[OH2+].O=C([O-])c1ccccc1[OH2+].[Mn+2] (centres undefined) | > 100000 nM |
| Nc1nc(-c2ccc(Cl)cc2)nc2c1sc(=S)n2-c1ccccc1 | 1920 nM |
| O=S(=O)(O)c1ccc2cc3nn(-c4ccc(/C=C/c5ccc(-n6nc7cc8ccc(S(=O)(=O)O)cc8cc7n6)cc5S(=O)(=O)O)c(S(=O)(=O)O)c4)nc3cc2c1 | > 100000 nM |

Please look at the following molecule next.
Query string: What is its GI50 for A498 renal? Entry: "COC1=C(OC)[C@]2(OC)c3c(O)c(OC)c4c(c3O[C@@]23O[C@@H](c2ccccc2)CC=C3C1=O)[C@@H](OC)C[C@H](c1ccccc1)O4"
Result string: 1510 nM
